Give pIC50 for every item shown.
# testedSystem: Met kinase domain (GST fusion protein) (Homo sapiens, UniProt P08581)
# Construct: Purified GST fusion protein containing the Met kinase domain
# Sequence (P08581 1078-1345 limits assumed): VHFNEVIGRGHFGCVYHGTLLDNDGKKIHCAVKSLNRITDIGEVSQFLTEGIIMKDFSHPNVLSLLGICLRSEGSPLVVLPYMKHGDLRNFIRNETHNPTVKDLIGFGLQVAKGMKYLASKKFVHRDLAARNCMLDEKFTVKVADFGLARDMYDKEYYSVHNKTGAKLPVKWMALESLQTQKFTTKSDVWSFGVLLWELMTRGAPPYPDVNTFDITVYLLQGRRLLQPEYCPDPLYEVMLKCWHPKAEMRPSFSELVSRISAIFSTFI
# protocol: Met transphosphorylation assay (ELISA, poly(glu-tyr) substrate);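 also: Cell-free ELISA with plate-bound poly(Glu:Tyr 4:1) phosphorylated by GST-fused Met kinase domain plus ATP and Mn2+, phosphotyrosine detected by anti-phosphotyrosine antibody with HRP and ABTS read-out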
# Assay type: biochemical
# conditionLabel: read-out: Met IC50
Numbers only, as −log10 of the molar value.

Consider the following illustrative entries.
compound="CC(C)(C)OC(=O)N[C@H]1CCN(C(=O)c2cc3cc(-c4cnc(N)c(OCc5c(Cl)cccc5Cl)c4)ccc3[nH]2)C1 [Example I-83]" assayresult=5.30
compound="CC(=O)N1CCN(C(=O)c2ccc(-c3cnc(N)c(OCc4ccccc4Cl)c3)cc2)CC1 [Example I-157]" assayresult=5.42
compound="Nc1ncc(-c2ccc(O)cc2)cc1OCc1c(F)cccc1Cl [Example I-128]" assayresult=5.40
compound="Nc1ncc(-c2ccccc2)cc1OCc1c(F)cccc1Cl [Example I-103]" assayresult=5.10
compound="CC(Oc1nc(-c2ccc(C(=O)N3CC[C@@H](N)C3)cc2)cnc1N)c1c(Cl)cccc1Cl (some centres unmarked) [II-164]" assayresult=6.82
compound="CC(Oc1nc(-c2ccc(NC(=O)N3CCN(C)CC3)cc2)cnc1N)c1c(Cl)ccc(F)c1Cl (centres unmarked) [II-189]" assayresult=7.13
compound="CC(Oc1nc(-c2ccc(C(=O)N3CCC[C@H]3CN3CCCC3)cc2)cnc1N)c1c(F)ccc(F)c1Cl (some centres unmarked) [II-113]" assayresult=6.74
compound="CC(=O)N1CCN(C(=O)c2ccc(-c3cnc(N)c(OCc4ccc(Cl)cc4Cl)c3)cc2)CC1 [Example I-178]" assayresult=5.78
compound="Nc1ncc(-c2ccc(NS(=O)(=O)CCN3CCC(O)CC3)cc2)nc1OCc1c(F)ccc(F)c1Cl [II-11]" assayresult=6.19
compound="Nc1ncc(-c2ccc(OCCN3CCOCC3)cc2)cc1OCc1cccc2ccccc12 [Example I-107]" assayresult=5.11

Batch request: pIC50 per item, same order as input.
1. Nc1ncc(-c2cccc(C(=O)NCCCN3CCCC3)c2)nc1OCc1cccc(F)c1C(F)(F)F [II-125]
2. Nc1ncc(-c2ccc(NS(=O)(=O)CCN3CCOCC3)cc2)nc1OCc1c(F)ccc(F)c1Cl [II-9]

6.66
5.90

---

Consider the following compounds; for each one, report its inhibition at 0.05 µM.
# testedSystem: HGFR (Homo sapiens)
# Construct: purchased Upstate 14-526
# Sequence (P08581 974-1390 limits assumed): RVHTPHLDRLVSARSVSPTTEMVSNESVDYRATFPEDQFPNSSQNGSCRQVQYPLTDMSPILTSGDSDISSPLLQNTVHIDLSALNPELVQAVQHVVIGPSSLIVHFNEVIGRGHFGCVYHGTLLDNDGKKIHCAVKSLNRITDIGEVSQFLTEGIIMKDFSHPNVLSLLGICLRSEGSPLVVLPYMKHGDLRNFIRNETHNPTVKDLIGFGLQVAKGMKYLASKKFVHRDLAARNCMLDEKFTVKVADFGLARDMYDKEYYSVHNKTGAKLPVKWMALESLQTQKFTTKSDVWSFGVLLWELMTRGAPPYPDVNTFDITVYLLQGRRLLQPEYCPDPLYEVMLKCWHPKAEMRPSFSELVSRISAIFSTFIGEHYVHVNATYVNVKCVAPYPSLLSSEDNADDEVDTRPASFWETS
# protocol: HGFR continuous-coupled spectrophotometric assay
# Type: biochemical
# conditionLabel: at 50 nM; Table 5, library procedure 40; read-out: % inhibition (percent c-MET inhibition)
Give bare numbers, in %.

Some entries whose results are on file:
compound="COCCNC(=O)c1ccc(-c2cnc(N)c(OC(C)c3c(Cl)ccc(F)c3Cl)c2)cc1 [Example L-79]" testedsystem="HGFR (Homo sapiens)" endpointname="inhibition at 0.05 µM" assayresult=73
compound="COc1ccc(CNC(=O)c2ccc(-c3cnc(N)c(OC(C)c4c(Cl)ccc(F)c4Cl)c3)cc2)cc1OC [Example L-34]" testedsystem="HGFR (Homo sapiens)" endpointname="inhibition at 0.05 µM" assayresult=62

Go through the items and report each one's inhibition at 0.05 µM.
1. C[C@H](Oc1cc(-c2ccc(C(=O)NC[C@@H]3CCCC[C@H]3O)cc2)cnc1N)c1c(Cl)ccc(F)c1Cl [Example L-84]
2. CC(Oc1cc(-c2ccc(C(=O)N3CCN(CC(=O)N(C)C)CC3)cc2)cnc1N)c1c(Cl)ccc(F)c1Cl [Example L-146]
3. COCCN1CCN(C(=O)c2ccc(-c3cnc(N)c(OC(C)c4c(Cl)ccc(F)c4Cl)c3)cc2)CC1 [Example L-135]
4. CC1CCC(NC(=O)c2ccc(-c3cnc(N)c(OC(C)c4c(Cl)ccc(F)c4Cl)c3)cc2)CC1 [Example L-139]
5. CCOC(=O)N1CCC(NC(=O)c2ccc(-c3cnc(N)c(OC(C)c4c(Cl)ccc(F)c4Cl)c3)cc2)CC1 [Example L-52]
6. Cc1noc([C@H]2CC[C@H](CNC(=O)c3ccc(-c4cnc(N)c(O[C@@H](C)c5c(Cl)ccc(F)c5Cl)c4)cc3)CC2)n1 [Example L-176]
7. CC(Oc1cc(-c2ccc(C(=O)NCCN3CCCCC3)cc2)cnc1N)c1c(Cl)ccc(F)c1Cl [Example L-6]

67
89
76
60
66
51
69

Batch of 6 compounds: report inhibition at 0.05 µM for each.
1. CC(Oc1cc(-c2ccc(C(=O)NCCc3c[nH]c4ccc(O)cc34)cc2)cnc1N)c1c(Cl)ccc(F)c1Cl [Example L-69]
2. CC(Oc1cc(-c2ccc(C(=O)N3CCC(COCC4CC4)CC3)cc2)cnc1N)c1c(Cl)ccc(F)c1Cl [Example L-175]
3. CC(Oc1cc(-c2ccc(C(=O)NCC(C)(C)CO)cc2)cnc1N)c1c(Cl)ccc(F)c1Cl [Example L-50]
4. CC(Oc1cc(-c2ccc(C(=O)N(C)CCC#N)cc2)cnc1N)c1c(Cl)ccc(F)c1Cl [Example L-78]
5. CC(Oc1cc(-c2ccc(C(=O)NCc3ccccn3)cc2)cnc1N)c1c(Cl)ccc(F)c1Cl [Example L-10]
6. CC(Oc1cc(-c2ccc(C(=O)NCCc3nc(-c4ccncc4)c[nH]3)cc2)cnc1N)c1c(Cl)ccc(F)c1Cl [Example L-166]

[66, 60, 73, 68, 67, 67]
